Biological target: Tyrosine-protein phosphatase non-receptor type 1 (Homo sapiens)
Sequence (whole entry): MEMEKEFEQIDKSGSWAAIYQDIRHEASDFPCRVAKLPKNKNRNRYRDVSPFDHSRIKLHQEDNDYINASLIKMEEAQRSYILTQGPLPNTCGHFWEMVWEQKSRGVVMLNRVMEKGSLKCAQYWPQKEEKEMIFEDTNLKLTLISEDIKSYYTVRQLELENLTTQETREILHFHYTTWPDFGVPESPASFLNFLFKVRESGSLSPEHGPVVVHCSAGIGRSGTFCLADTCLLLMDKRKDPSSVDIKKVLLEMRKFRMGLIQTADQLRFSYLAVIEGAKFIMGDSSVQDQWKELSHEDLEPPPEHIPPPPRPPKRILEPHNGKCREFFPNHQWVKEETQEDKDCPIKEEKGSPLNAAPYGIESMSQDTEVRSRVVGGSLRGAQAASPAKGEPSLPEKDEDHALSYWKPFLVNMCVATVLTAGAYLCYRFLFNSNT
Assay: Percent inhibition against Protein-tyrosine phosphatase 1B at a 10 uM concentration
OBSERVED_PROPERTY: inhibition (%)

CCCCCNC(=O)[C@H](Cc1ccc(OCC(=O)O)c(C(=O)NO)c1)NC(=O)[C@H](Cc1ccccc1)NC(=O)OC(C)(C)C : 13

1 = CCCCCNC(=O)[C@H](Cc1ccc(OCC(=O)O)c(C(=O)OC)c1)NC(=O)[C@H](Cc1ccccc1)NC(=O)OC(C)(C)C
2 = CCCCCNC(=O)[C@H](Cc1ccc(OCC(=O)O)c(CCC(=O)O)c1)NC(=O)[C@H](Cc1ccccc1)NC(=O)OC(C)(C)C
3 = CCCCCNC(=O)[C@H](Cc1ccc(OCC(=O)O)c(-c2cc(O)no2)c1)NC(=O)[C@H](Cc1ccccc1)NC(=O)OC(C)(C)C
Exercise: Number of molecules to sort: 3. Sort criterion: inhibition, ascending. Note for the reader: the ranking is given by listing the labels in the order requested.
Solution: 3, 1, 2

I = CCCCCNC(=O)[C@H](Cc1ccc(OCC(=O)NO)c(C(=O)O)c1)NC(=O)[C@H](Cc1ccccc1)NC(=O)OC(C)(C)C
II = CCCCCNC(=O)[C@H](Cc1ccc(OCC(=O)O)c(-c2nn[nH]n2)c1)NC(=O)[C@H](Cc1ccccc1)NC(=O)OC(C)(C)C
Exercise: // task: argmin of inhibition over [ I , II ] Label of pick, please.
Solution: I

---

Target: Tyrosine-protein phosphatase non-receptor type 1 (Homo sapiens) (UniProt P18031)
Sequence (whole entry): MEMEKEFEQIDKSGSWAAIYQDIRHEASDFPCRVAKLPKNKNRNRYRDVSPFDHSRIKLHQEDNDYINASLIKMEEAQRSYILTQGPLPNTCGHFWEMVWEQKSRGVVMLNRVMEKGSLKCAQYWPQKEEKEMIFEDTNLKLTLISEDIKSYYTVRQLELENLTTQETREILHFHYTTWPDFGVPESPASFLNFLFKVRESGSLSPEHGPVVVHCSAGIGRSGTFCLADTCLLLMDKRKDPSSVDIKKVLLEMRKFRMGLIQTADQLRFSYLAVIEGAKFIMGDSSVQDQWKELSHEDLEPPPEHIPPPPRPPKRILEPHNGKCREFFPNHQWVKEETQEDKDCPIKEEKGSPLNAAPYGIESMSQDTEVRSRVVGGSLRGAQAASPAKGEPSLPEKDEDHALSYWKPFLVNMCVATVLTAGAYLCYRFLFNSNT
Assay: Percent inhibition against Protein-tyrosine phosphatase 1B at a 10 uM concentration
OBSERVED_PROPERTY: inhibition (%)

CCCCCNC(=O)[C@H](Cc1ccc(OCC(=O)O)c(C#CC(=O)O)c1)NC(=O)[C@H](Cc1ccccc1)NC(=O)OC(C)(C)C : 3
CCCCCNC(=O)[C@H](Cc1ccc(OCC(=O)OC)c(C(=O)O)c1)NC(=O)[C@H](Cc1ccccc1)NC(=O)OC(C)(C)C : 5

A = CCCCCNC(=O)[C@H](Cc1ccc(OCC(N)=O)c(C(=O)O)c1)NC(=O)[C@H](Cc1ccccc1)NC(=O)OC(C)(C)C
B = CCCCCNC(=O)[C@H](Cc1ccc(OCC(=O)O)c(C(=O)O)c1)NC(=O)[C@H](Cc1ccccc1)NC(=O)OC(C)(C)C
Exercise: // task: argmin of inhibition over [ A , B ] Label of pick, please.
Solution: A
(A: 0%, B: 78%)

The values you see were collected from ChEMBL document CHEMBL1135929.
